- measurement_target: Carnitine O-palmitoyltransferase 2, mitochondrial (Homo sapiens, UniProt P23786)
- Sequence (P23786 whole entry): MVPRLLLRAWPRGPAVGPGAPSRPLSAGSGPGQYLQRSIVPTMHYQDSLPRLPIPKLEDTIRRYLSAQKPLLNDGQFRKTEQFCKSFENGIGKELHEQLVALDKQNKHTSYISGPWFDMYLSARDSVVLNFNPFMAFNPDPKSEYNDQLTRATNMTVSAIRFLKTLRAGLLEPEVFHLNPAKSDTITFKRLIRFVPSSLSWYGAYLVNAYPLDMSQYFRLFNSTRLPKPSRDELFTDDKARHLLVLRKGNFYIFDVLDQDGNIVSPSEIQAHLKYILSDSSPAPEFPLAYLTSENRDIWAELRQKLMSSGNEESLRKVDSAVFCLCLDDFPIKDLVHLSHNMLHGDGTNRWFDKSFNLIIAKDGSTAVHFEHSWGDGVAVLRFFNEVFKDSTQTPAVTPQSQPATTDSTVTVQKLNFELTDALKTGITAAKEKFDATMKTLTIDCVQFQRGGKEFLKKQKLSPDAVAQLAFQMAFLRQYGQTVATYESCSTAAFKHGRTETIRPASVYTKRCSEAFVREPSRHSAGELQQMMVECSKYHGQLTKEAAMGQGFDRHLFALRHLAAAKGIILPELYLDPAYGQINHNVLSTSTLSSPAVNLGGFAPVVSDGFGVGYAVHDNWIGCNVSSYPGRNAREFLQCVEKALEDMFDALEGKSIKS
- method: SUPPLEMENTARY: Inhibition of Carnitine palmitoyltransferase 2
metric_name: pIC50
For clarity, pIC50 is expressed as the negative log10 of concentration in mol/L.

I'd like to know its pIC50. The compound in question is CS(=O)(=O)Nc1cccc(-c2n[nH]c([C@H]3CCCCN3C(=O)COc3ccccc3)n2)c1
4.62

Entry Cc1cc(C)cc(S(=O)(=O)N2CC[S+]([O-])c3ccc(C(=O)Nc4ccc(C(=O)O)cc4)cc32)c1 (centres undefined) please
5.73

One more compound: O=C(O)c1ccc(NC(=O)c2ccc3c(c2)N(S(=O)(=O)c2cccc(Cl)c2)CCS3)cc1
5.71

# iterate: O=C(COc1ccccc1)N1CCCC[C@@H]1c1nc(-c2ccc3[nH]c(=O)[nH]c3c2)no1
4.16

Now consider O=C(O)c1ccc(NC(=O)c2ccc3c(c2)N(S(=O)(=O)c2cccc(Cl)c2)CCO3)cc1 .
4.02

// repeat for CNC(=O)c1cncc(-c2noc([C@H]3CCCCN3C(=O)COc3ccccc3)n2)c1 and report
4.05

What do you have for NC(=O)c1ccc(C#C[C@H]2CCCCN2C(=O)COc2ccccc2)cc1 ?
4.38

One more compound: Nc1cc(-c2noc([C@H]3CCCCN3C(=O)COc3ccccc3)n2)ccn1
4.71

---

I'd be grateful if you could share measured solubility kinetic for these entries.
- method: SUPPLEMENTARY: Lyophilisation Solubility Assay (LYSA)
- Format: physicochemical
- cond: read-out: Kinetic_solubility

What value of solubility kinetic has been reported for the following compound? O=C(COc1ccccc1)N1CCCC[C@@H]1c1nc(-c2ccncc2)cs1
39 µg/mL

Further, for COc1ccc(Cl)cc1S(=O)(=O)N1CCSc2ccc(C(=O)Nc3nc(CC(=O)O)cs3)cc21 ?
5 µg/mL

Repeat for the following compound: O=C([O-])c1cccc(-c2csc([C@H]3CCCCN3C(=O)COc3ccccc3)n2)c1.[Na+]
> 525 µg/mL

Please answer likewise for COc1ccc(Cl)cc1CN1C(=O)C2(CC2)c2ccc(C(=O)Nc3ccc(C(=O)O)cc3)cc21
13 µg/mL

Another compound to look at: Cc1cc(C)cc(S(=O)(=O)c2n[nH]c3ccc(C(=O)Nc4ccccc4)cc23)c1
< 1 µg/mL

How about COc1ccc(Cl)cc1S(=O)(=O)N1CCc2ccc(C(=O)Nc3ccc(CC(=O)O)cc3)cc21 ?
532 µg/mL

Same for O=C(COc1ccccc1)N1CCCC[C@@H]1c1noc(-c2cccc(-n3cc[nH]c3=O)c2)n1
70 µg/mL

Could you do the same for O=C(COc1ccccc1)N1CCCC[C@@H]1c1noc(-c2cc[nH]n2)n1 , please?
22 µg/mL

Next entry: Nc1ncc(Cl)c(-c2nc([C@H]3CCCCN3C(=O)COc3ccccc3)no2)n1
51 µg/mL

---

- measurement_target: Carnitine O-palmitoyltransferase 1, liver isoform (Rattus norvegicus, UniProt P32198)
- Sequence (P32198 whole entry, canonical isoform): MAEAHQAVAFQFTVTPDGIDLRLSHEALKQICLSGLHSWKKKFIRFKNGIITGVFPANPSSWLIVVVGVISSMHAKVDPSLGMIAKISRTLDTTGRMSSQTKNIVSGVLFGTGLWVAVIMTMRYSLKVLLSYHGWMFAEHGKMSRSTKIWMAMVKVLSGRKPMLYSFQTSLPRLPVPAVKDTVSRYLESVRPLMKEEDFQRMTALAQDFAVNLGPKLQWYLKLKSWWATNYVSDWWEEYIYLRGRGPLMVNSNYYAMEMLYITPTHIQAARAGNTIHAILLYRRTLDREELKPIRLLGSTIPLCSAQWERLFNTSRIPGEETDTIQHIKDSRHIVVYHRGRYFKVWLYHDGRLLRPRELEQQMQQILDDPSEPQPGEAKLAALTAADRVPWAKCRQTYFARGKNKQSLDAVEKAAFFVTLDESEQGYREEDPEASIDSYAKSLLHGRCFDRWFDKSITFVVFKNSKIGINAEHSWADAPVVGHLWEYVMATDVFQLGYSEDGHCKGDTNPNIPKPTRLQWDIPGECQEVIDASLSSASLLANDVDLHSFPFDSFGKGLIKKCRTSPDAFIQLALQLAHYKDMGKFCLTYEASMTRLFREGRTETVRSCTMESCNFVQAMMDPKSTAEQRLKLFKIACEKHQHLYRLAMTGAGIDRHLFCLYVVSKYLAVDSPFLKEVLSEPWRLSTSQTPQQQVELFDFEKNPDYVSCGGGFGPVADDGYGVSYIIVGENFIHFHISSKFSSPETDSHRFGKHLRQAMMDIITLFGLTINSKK
- method: SUPPLEMENTARY: Inhibition of Carnitine palmitoyltransferase 1, liver isoform
metric_name: pIC50
Kindly note that pIC50 refers to -log10 of the concentration in mol/L and answer with the value alone.

For the molecule shown here, CCN(c1cc(C(=O)Nc2ccn(CC(=O)O)n2)cc2c1OCO2)S(=O)(=O)c1cc(Cl)ccc1OC , give the reported pIC50.
6.16

Moving on to the next molecule: O=C(O)c1ccc(C(=O)Nc2nn(Cc3ccc(OC(F)F)cc3)c3ccc(F)cc23)cc1
6.29

Also check COc1ccc(Cl)cc1S(=O)(=O)c1cn(CC(N)=O)c2ccc(C(=O)Nc3ccccc3)cc12
7.77

Subsequent entry: CC(=O)Nc1cccc(-c2nc([C@H]3CCCCN3C(=O)COc3ccccc3)no2)c1
6.98

Note, next up: CC(=O)Nc1cc(-c2noc([C@H]3CCCCN3C(=O)COc3ccccc3)n2)ccc1F
6.84

---

For reference, IC50 measured on Carnitine O-palmitoyltransferase 2, mitochondrial (Homo sapiens, UniProt P23786):
Express your answer in µM, writing the number without its unit.

Which IC50 value is on record for NNC(=O)c1cccc(-c2n[nH]c([C@H]3CCCCN3C(=O)COc3ccccc3)n2)c1 ?
23.5

What do you get for O=C(COc1ccccc1)N1CCCC[C@@H]1c1nc(-c2ccc3nccn3c2)no1 ?
14.5

Likewise for NC(=O)c1cccc(-c2noc([C@H]3CCCCN3C(=O)COc3ccccc3)n2)c1 ?
16.7

Input O=C1Cc2cc(-c3noc(C4C5CC5CN4C(=O)COc4ccccc4)n3)ccc2N1 (stereo not drawn)
65

How about COc1ccc(Cl)cc1S(=O)(=O)N1COc2ccc(C(=O)Nc3ccc(C(=O)O)cc3)cc21 ?
2.89

Moving on to the next compound: COc1ccc(Cl)cc1S(=O)(=O)c1nn(C)c2ccc(C(=O)Nc3ccc(C(=O)O)c(Cl)c3)cc12
21.3

---

- method: SUPPLEMENTARY: PAMPA permeability assay
- Format: physicochemical
- cond: read-out: Permeability
metric_name: Papp
Answer by giving the amount and then stating its unit.

Fill blank: measured Papp of the molecule CS(=O)(=O)c1ccc(-c2csc([C@H]3CCCCN3C(=O)COc3ccccc3)n2)cc1 is ____.
2.11 ×10⁻⁶ cm/s

Please answer likewise for COc1ccc(Cl)cc1S(=O)(=O)N1C[C@H](C)c2ccc(C(=O)Nc3ccc(C(=O)O)cc3)cc21
2.83 ×10⁻⁶ cm/s

Ok, now O=C(c1nc([C@H]2CCCCN2C(=O)COc2ccccc2)no1)N1CCOCC1
8.06 ×10⁻⁶ cm/s

# iterate: COc1ccc(Cl)cc1S(=O)(=O)N1COc2ccc(C(=O)Nc3ccc(C(=O)O)cc3)cc21
2.93 ×10⁻⁶ cm/s

Request: COc1ccc(Cl)cc1S(=O)(=O)N1CCc2c(C)cc(C(=O)Nc3ccc(C(=O)O)c(Cl)c3)cc21
1.52 ×10⁻⁶ cm/s

What do you get for O=C1CCC(=O)N1c1cccc(-c2n[nH]c([C@H]3CCCCN3C(=O)COc3ccccc3)n2)c1 ?
3.3 ×10⁻⁶ cm/s

Also COc1ccc(Cl)cc1S(=O)(=O)N1CCCc2ccc(C(=O)Nc3ccc(C(=O)O)c(F)c3)cc21 , if possible.
1.77 ×10⁻⁶ cm/s

Now give it for O=C(COc1ccccc1)N1CCCC[C@@H]1c1noc(-c2ccc3snnc3c2)n1 too.
2.42 ×10⁻⁶ cm/s

Next molecule: COc1ccc(Cl)cc1S(=O)(=O)N1COc2ccc(C(=O)Nc3ccc(CC(=O)O)cc3)cc21
3.01 ×10⁻⁶ cm/s

---

What Papp was measured for each of the following?
- method: SUPPLEMENTARY: PAMPA permeability assay
- Format: physicochemical
- cond: read-out: Permeability
Express it in ×10⁻⁶ cm/s; write the number only.

Find the recorded Papp belonging to O=C(Nc1ccc(-c2nnn[nH]2)cc1)c1nn(Cc2ccc(OC(F)F)cc2)c2ccc(F)cc12 and report it.
0.46

Param item: O=C(O)c1cccc(-c2noc([C@H]3CCCCN3C(=O)COc3ccccc3)n2)c1
1.92

Now consider O=C(COc1ccccc1)N1CCCC[C@@H]1c1noc(-c2ccc(C(F)(F)F)nc2)n1 .
2.21

Note, next up: O=C(COc1ccccc1)N1CCCC[C@@H]1c1nc(-c2cccnc2)cs1
3.8

Try COc1ccc(Cl)cc1Cc1cn(C)c2ccc(C(=O)Nc3nc(CC(=O)O)cs3)cc12 next.
0.51

Okay, and O=C(COc1ccccc1)N1CCCC[C@@H]1c1nc(-c2cccc([N+](=O)[O-])n2)no1 ?
5.48

For COc1ccc(Cl)cc1S(=O)(=O)N1CCOc2c(F)cc(C(=O)Nc3ccc(C(=O)O)c(Cl)c3)cc21 then?
1.45

Moving on to O=C(NCc1ccccc1)[C@H]1CCCCN1C(=O)COc1ccccc1
7.12

Okay, and O=C(Nc1ccc(C(=O)O)c(F)c1)c1ccc2c(c1)N(S(=O)(=O)c1cccc(C(F)(F)F)c1)CC2 ?
1.99

Try the molecule N#Cc1ccc(-c2nc([C@H]3CCCCN3C(=O)COc3ccccc3)no2)cc1
5.52

Proceed to COc1ccc(Cl)cc1S(=O)(=O)N(c1cc(C(=O)Nc2ncc(CC(=O)O)s2)cc2c1OCO2)C(C)C
3.53

What do we get for NS(=O)(=O)c1cccc(-c2noc([C@H]3CCCCN3C(=O)COc3ccccc3)n2)c1 ?
1.63

// query: CCCN(c1cc(C(=O)Nc2ccc(CC(=O)O)cc2)cc2c1OCO2)S(=O)(=O)c1cc(Cl)ccc1OC
3.45

Would you kindly repeat that for CCNC(=O)Nc1cccc(-c2n[nH]c([C@H]3CCCCN3C(=O)COc3ccccc3)n2)c1 ?
2.23

# repeat for COc1ccc(C)cc1S(=O)(=O)N1CCCc2ccc(C(=O)Nc3ccc(C(=O)O)c(F)c3)cc21
1.62

Try this molecule too: CCn1cc(Sc2cc(Cl)ccc2OC)c2cc(C(=O)Nc3ccc(C(=O)O)cc3)ccc21
0.71

// next record COc1ccc(Cl)cc1S(=O)(=O)N1CCSc2ccc(C(=O)Nc3nc(CC(=O)O)cs3)cc21
3.65

Next up: O=C(COc1ccccc1)N1CCCC[C@@H]1c1noc(-c2cccc(-n3cc[nH]c3=O)c2)n1
7.36

Next: N#Cc1ccc(C#C[C@H]2CCCCN2C(=O)COc2ccccc2)cc1
0.61

Lookup CN1CCN(c2cc3c(cc2Cl)CN(C(=O)[C@H]2CCCCN2C(=O)COc2ccccc2)C3)CC1
3.16

// query: NC(=O)c1ccc(-c2noc([C@H]3CCCCN3C(=O)COc3ccccc3)n2)cc1
5.08

Please give the result for Nc1cncc(-c2nc([C@H]3CCCCN3C(=O)COc3ccccc3)no2)c1 too.
5.07

COc1ccc(Cl)cc1CN1C(=O)C(C)(C)c2ccc(C(=O)Nc3ccc(C(=O)O)cc3)cc21 , same question.
0.94

Another molecule to check: O=C([C@H]1CCCCN1C(=O)COc1ccccc1)N1CCc2ccccc2C1
4.18

Would you mind doing COc1ccc(Cl)cc1S(=O)(=O)N1CCOc2c(F)cc(C(=O)Nc3ccc(C(=O)O)c(F)c3)cc21 as well?
1.66

Moving on to the next molecule: CC(=O)Nc1cccc(-c2nc([C@H]3CCCCN3C(=O)COc3ccccc3)n(C)n2)c1
2.93

Request: CCN(CC)C(=O)c1nc([C@H]2CCCCN2C(=O)COc2ccccc2)no1
11.5

# iterate: O=C(COc1ccccc1)N1CCCC[C@@H]1c1nc(-c2cccc(-c3nnco3)c2)n[nH]1
3.05

And the next one, CCCN(c1cc(C(=O)Nc2ncc(CC(=O)O)s2)cc2c1OCO2)S(=O)(=O)c1cc(Cl)ccc1OC ?
3.56

Also COc1ccc(Cl)cc1S(=O)(=O)N1COc2ccc(C(=O)Nc3ccc(C(=O)O)c(Cl)c3)cc21 , if possible.
1.66
